# System: OVCAR-8
# Experiment Summary: NCI tumour cell line growth inhibition, 48 h
Active and inactive are the calls of the source. Cut-off read from the data, not from the text of the source: active = GI50 up to about 1.1 µM and inactive = higher.
Readout: GI50

Entry COC(=O)/C=C1\C(=O)N(C(C)=O)c2ccccc21 , system OVCAR-8: what GI50 was measured?
17.4 µM (inactive)

---

# System: COLO 205
# Experiment Summary: NCI tumour cell line growth inhibition, 48 h
The source made the active and inactive calls. No stated cut-off is given here; in the data, active = GI50 up to about 1.1 µM and inactive = higher.
Log the outcome using a class from active, inactive

Previously resolved entries follow.
| Compound | Category |
| --- | --- |
| [N-]=[N+]=NC1=NNC2(C(=O)N1)c1ccccc1-c1ccccc12 | inactive |
| CCn1c(=N)sc2nc3ccccc3n2c1=O | inactive |
| C=CCc1cccc2cc(C(=O)Nc3ccc(C)cc3)c(=N)oc12 | inactive |
| C[Si](C)(C)/C(I)=C/CO | inactive |
| Sc1cnnc2ccc(Br)cc12 | inactive |
| COC(=O)/C(C#N)=C(\Nc1ccccc1)N1CCCC1 | inactive |
| Cc1cc(=O)n2nc(CCl)sc2n1 | inactive |
| CC(=O)Oc1cccc2c1C(=O)C(Br)(Br)CCC2 | inactive |

Please let me know the test result on file for Cc1nc2ccccc2c(=O)n1NC(=S)Nc1ccccc1 .
inactive

Please let me know the test result on file for CN(C)C(=O)C(F)(F)C(c1ccc(Br)cc1)C1C(=O)N(C)C(=O)N(C)C1=O (stereo not drawn) .
inactive

Please let me know the test result on file for COC12OCCN(CCO)C1=CC(=O)C1(C)N=NC(C)C12 (stereo not drawn) .
inactive

Please let me know the test result on file for Cn1cnc(N)c(N=O)c1=O .
inactive

Please let me know the test result on file for COc1cccc(/N=C/c2cc3cc(Br)ccc3nc2Cl)c1 .
inactive

Please let me know the test result on file for Cc1nc2ccccc2c(=O)n1NC(=O)c1ccc(CS)cc1 .
inactive

Please let me know the test result on file for COC(=O)c1ccccc1NC(=O)/C(=N\NC(C)(C)C)C(C#N)c1nc(-c2ccc([N+](=O)[O-])cc2)cs1 (stereo not drawn) .
inactive

Please let me know the test result on file for Nc1cc(OCc2ccccc2)c(OCc2ccccc2)cc1C=O .
inactive

---

Known GI50 of a selection of compounds
# Tested on: XF498
# Experiment Summary: NCI tumour cell line growth inhibition, 48 h
Active and inactive are the calls of the source. Rule as the data show it: active = GI50 up to about 1.1 µM and inactive = higher.

// known answers, use as guide
| Compound | GI50 |
| --- | --- |
| CCCCCCCCCCCCC(Br)C(=O)NCC(N)=O (stereo not drawn) | 1.37 µM (inactive) |
| COc1ccccc1/C=C1\N=C(C)OC1=O | > 100 µM (inactive) |

With those in mind, consider the next compound.
Need GI50 of C=CCC1(C(=O)OC(C)(C)C)C(OC)=C(C(=O)OC(C)(C)C)C2C1C(C(=O)OC(C)(C)C)=C(OC)C2(CC=C)C(=O)OC(C)(C)C (stereo not drawn) , thanks.
> 100 µM (inactive)

---

Known GI50 of a selection of compounds
# System: ACHN
# Experiment Summary: NCI tumour cell line growth inhibition, 48 h
Calls of active or inactive are those of the source. Rule as the data show it: active = GI50 up to about 1.1 µM and inactive = higher.

// known answers, use as guide
| Compound | Readout | Endpoint Value |
| --- | --- | --- |
| CN(C)C(=O)C(F)(F)C(c1ccc(Br)cc1)C1C(=O)N(C)C(=O)N(C)C1=O (stereo unspecified) | GI50 | > 100 µM (inactive) |
| CC(=C(c1ccccc1)c1ccccc1)N1C(=O)CC(=O)N1C | GI50 | > 100 µM (inactive) |
| CCOC(=O)Cc1csc(N/N=C2\C(=O)Nc3ccccc32)n1 | GI50 | 32.4 µM (inactive) |

Need GI50 of O=C1c2ccccc2/N=C(/c2cc3c(cc2Cl)Sc2nccn2S3(=O)=O)OS(=O)(=O)N1c1ccccc1 , thanks.
25.8 µM (inactive)

Need GI50 of Cc1ccc(S(=O)(=O)N/N=C2\CC3CC4CCC2C4C3)cc1 (stereo unspecified) , thanks.
> 100 µM (inactive)

Need GI50 of CCCCCCCCCCCCCCCCOCC(CC(F)(F)P(=O)(O)O)OC(C)=O (stereo unspecified) , thanks.
> 50 µM (inactive)
